B1: N-chimaerin (Homo sapiens), P15882 (parent)
chain: MALTLFDTDEYRPPVWKSYLYQLQQEAPHPRRITCTCEVENRPKYYGREFHGMISREAADQLLIVAEGSYLIRESQRQPGTYTLALRFGSQTRNFRLYYDGKHFVGEKRFESIHDLVTDGLITLYIETKAAEYIAKMTINPIYEHVGYTTLNREPAYKKHMPVLKETHDERDSTGQDGVSEKRLTSLVRRATLKENEQIPKYEKIHNFKVHTFRGPHWCEYCANFMWGLIAQGVKCADCGLNVHKQCSKMVPNDCKPDLKHVKKVYSCDLTTLVKAHTTKRPMVVDMCIREIESRGLNSEGLYRVSGFSDLIEDVKMAFDRDGEKADISVNMYEDINIITGALKLYFRDLPIPLITYDAYPKFIESAKIMDPDEQLETLHEALKLLPPAHCETLRYLMAHLKRVTLHEKENLMNAENLGIVFGPTLMRSPELDAMAALNDIRYQRLVVELLIKNEDILF

Variants of: B1
condition context: with nck2_human NCK2, O43639
Sequence (O43639 whole entry): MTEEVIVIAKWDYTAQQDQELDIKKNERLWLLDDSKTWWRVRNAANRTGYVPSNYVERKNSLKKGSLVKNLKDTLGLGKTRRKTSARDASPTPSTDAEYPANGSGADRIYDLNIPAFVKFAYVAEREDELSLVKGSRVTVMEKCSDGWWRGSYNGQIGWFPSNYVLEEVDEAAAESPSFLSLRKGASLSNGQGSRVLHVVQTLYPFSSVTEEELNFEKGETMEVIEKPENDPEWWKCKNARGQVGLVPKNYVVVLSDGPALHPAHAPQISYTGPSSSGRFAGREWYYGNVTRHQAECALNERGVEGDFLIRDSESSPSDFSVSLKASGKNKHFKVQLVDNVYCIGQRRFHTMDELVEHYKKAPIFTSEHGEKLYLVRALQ

[
  {
    "mutation label": "G228S",
    "effect of a mutation on the interaction": "with no effect"
  },
  {
    "mutation label": "P252Q",
    "effect of a mutation on the interaction": "with no effect"
  },
  {
    "mutation label": "A223V",
    "effect of a mutation on the interaction": "with no effect"
  },
  {
    "mutation label": "L20F",
    "effect of a mutation on the interaction": "with no effect"
  }
]
